assay: self-splicing fitness, log relative to wild type (ln ratio); higher = more splicing; Tetrahymena group I intron in knt gene, E. coli kanamycin selection, DiMSum; sequences stand for … in CUCUCU…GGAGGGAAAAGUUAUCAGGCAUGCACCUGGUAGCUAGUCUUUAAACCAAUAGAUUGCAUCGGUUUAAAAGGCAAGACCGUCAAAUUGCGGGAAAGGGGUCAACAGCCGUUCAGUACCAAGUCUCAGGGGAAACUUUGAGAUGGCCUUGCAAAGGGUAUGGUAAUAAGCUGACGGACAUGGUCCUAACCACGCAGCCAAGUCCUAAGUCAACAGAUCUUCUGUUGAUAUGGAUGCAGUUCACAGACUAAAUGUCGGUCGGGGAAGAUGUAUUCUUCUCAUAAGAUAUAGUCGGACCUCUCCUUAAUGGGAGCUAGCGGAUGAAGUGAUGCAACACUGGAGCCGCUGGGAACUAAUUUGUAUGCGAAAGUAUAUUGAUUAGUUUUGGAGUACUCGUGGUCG; settings: 30 °C;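 also: selection with 25 µg/mL kanamycin versus none on LB agar overnight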
This section presents sequences with their documented self-splicing fitness (ln) values.
RESULT_TYPE: self-splicing fitness (ln)

| RESIDUE_SEQUENCE | RESULT_TYPE | MEASURED_NUMBER |
| --- | --- | --- |
| CCGCAGCAAUAUUACGUUAC | self-splicing fitness (ln) | -3.36 |
| GUAAAGCAAUAUUACGACGG | self-splicing fitness (ln) | -3.85 |
| AUGUAGCAAUAUUACGGCUG | self-splicing fitness (ln) | -1.95 |
| GUUUAGCAAUAUUACGCCCA | self-splicing fitness (ln) | -1.48 |
| AAGCAGCAAUAUUACGGGUG | self-splicing fitness (ln) | -3.43 |
| UCCAAGCAAUAUUACGAUUA | self-splicing fitness (ln) | -0.942 |
| CGUAAGCAAUAUUACGUUAU | self-splicing fitness (ln) | -4.56 |
| GUCGAGCAAUAUUACGAUUA | self-splicing fitness (ln) | 0.373 |
| AUCUAGCAAUAUUACGGCGU | self-splicing fitness (ln) | -0.0812 |
| CUUCAGCAAUAUUACGCAGC | self-splicing fitness (ln) | -2.04 |
| GCAAAGCAAUAUUACGGGGA | self-splicing fitness (ln) | -2.9 |
| GCAGAGCAAUAUUACGCAUC | self-splicing fitness (ln) | -3.14 |
| UGCGAGCAAUAUUACGGUUU | self-splicing fitness (ln) | -3.14 |
| GGUAAGCAAUAUUACGGUAC | self-splicing fitness (ln) | -1.32 |
| UAUCAGCAAUAUUACGCCCU | self-splicing fitness (ln) | -0.754 |
| CUUCAGCAAUAUUACGGAGC | self-splicing fitness (ln) | -3.04 |
| UUCGAGCAAUAUUACGGGUU | self-splicing fitness (ln) | -3.21 |
| UUUAAGCAAUAUUACGGCCC | self-splicing fitness (ln) | 0.344 |
| GCACAGCAAUAUUACGCAGG | self-splicing fitness (ln) | -3.5 |
| UUUCAGCAAUAUUACGAAUC | self-splicing fitness (ln) | -1.94 |
| AGCGAGCAAUAUUACGAUGU | self-splicing fitness (ln) | -2.99 |
| CGCCAGCAAUAUUACGAGUC | self-splicing fitness (ln) | -3.11 |
| AGAAAGCAAUAUUACGAACU | self-splicing fitness (ln) | -0.0259 |
| CCCGAGCAAUAUUACGGGUG | self-splicing fitness (ln) | -3.42 |
| CCUAAGCAAUAUUACGGAGU | self-splicing fitness (ln) | -3 |
| CAUAAGCAAUAUUACGGCUA | self-splicing fitness (ln) | -1.56 |
| AGGAAGCAAUAUUACGAUGG | self-splicing fitness (ln) | -2.53 |
| AUGCAGCAAUAUUACGUCGG | self-splicing fitness (ln) | -2.43 |
| GGGAAGCAAUAUUACGCUAU | self-splicing fitness (ln) | -2.75 |
| ACUAAGCAAUAUUACGUAAU | self-splicing fitness (ln) | -1.14 |
| AACCAGCAAUAUUACGGACG | self-splicing fitness (ln) | 0.131 |
| ACCCAGCAAUAUUACGGAUG | self-splicing fitness (ln) | -1.57 |
| CAUUAGCAAUAUUACGCUCU | self-splicing fitness (ln) | -2.64 |
| AAGAAGCAAUAUUACGGGGG | self-splicing fitness (ln) | -2.79 |
| GUCUAGCAAUAUUACGUAUG | self-splicing fitness (ln) | -2.94 |
| CGGAAGCAAUAUUACGCGAU | self-splicing fitness (ln) | -3.28 |
| GCGUAGCAAUAUUACGACUC | self-splicing fitness (ln) | 0.552 |
| UUUCAGCAAUAUUACGUGAG | self-splicing fitness (ln) | -0.129 |
| UGACAGCAAUAUUACGCAGA | self-splicing fitness (ln) | -1.96 |
| GUGAAGCAAUAUUACGCCGG | self-splicing fitness (ln) | -1.96 |
| AAGCAGCAAUAUUACGGAGC | self-splicing fitness (ln) | -3.81 |
| ACAUAGCAAUAUUACGCAGG | self-splicing fitness (ln) | -2.73 |
| GGAAAGCAAUAUUACGGGGU | self-splicing fitness (ln) | -3.1 |
| ACAUAGCAAUAUUACGGGAG | self-splicing fitness (ln) | -2.13 |
| CAGUAGCAAUAUUACGGGUU | self-splicing fitness (ln) | -2.49 |
| CUAUAGCAAUAUUACGGGCA | self-splicing fitness (ln) | -3.19 |
| AGUAAGCAAUAUUACGCAGC | self-splicing fitness (ln) | -3.52 |
| UUUUAGCAAUAUUACGGCGC | self-splicing fitness (ln) | -1.12 |
| AAGCAGCAAUAUUACGAAGA | self-splicing fitness (ln) | -3.03 |
| UUGUAGCAAUAUUACGGUAG | self-splicing fitness (ln) | -0.909 |
| CUGAAGCAAUAUUACGUACU | self-splicing fitness (ln) | -3.61 |
| UUAGAGCAAUAUUACGCGAU | self-splicing fitness (ln) | -3.09 |
| CUUUAGCAAUAUUACGCUGG | self-splicing fitness (ln) | -3.05 |
| AAUCAGCAAUAUUACGGUGA | self-splicing fitness (ln) | -0.138 |
| AAUAAGCAAUAUUACGUAGG | self-splicing fitness (ln) | -2.11 |
| GGUGAGCAAUAUUACGUCUU | self-splicing fitness (ln) | -0.609 |
| ACUCAGCAAUAUUACGGCAU | self-splicing fitness (ln) | -0.665 |
| UACGAGCAAUAUUACGGCGG | self-splicing fitness (ln) | -1.79 |
| CUUCAGCAAUAUUACGGAGU | self-splicing fitness (ln) | -3.27 |
| CCAGAGCAAUAUUACGAUAU | self-splicing fitness (ln) | -2.51 |
| AUACAGCAAUAUUACGUAGU | self-splicing fitness (ln) | -1.34 |
| GACAAGCAAUAUUACGAGCG | self-splicing fitness (ln) | -1 |
| AGAUAGCAAUAUUACGGCCA | self-splicing fitness (ln) | 0.117 |
| AGGGAGCAAUAUUACGAAAG | self-splicing fitness (ln) | -1.91 |
| UACUAGCAAUAUUACGUUAG | self-splicing fitness (ln) | -3.54 |
| GACUAGCAAUAUUACGCUCG | self-splicing fitness (ln) | -1.01 |
| CAGGAGCAAUAUUACGUAUA | self-splicing fitness (ln) | -4.26 |
